Values were extracted from the supplement of paper PMC9112550.

- Tested on: Escherichia coli TOP10
- PROCEDURE DETAILS: shrunken log2 fold change of peptide-encoding DNA abundance (4.5 h post-induction vs induction); higher = less antimicrobial activity (less host growth inhibition)
- EXPERIMENTAL CONDITIONS: time post-induction: 4.5 h; library: site-saturation at positions 5, 18, 19, 20
MEASUREMENT KIND: shrunken log2 fold change
Reply briefly: the number, and no unit.

Study these solved cases before continuing.
          residue_sequence           measurement_kind  value_measured
0  RRIRNRPPRLPRPRPRPVSPPRP  shrunken log2 fold change          -0.087
1  RRIRARPPRLPRPRPRPFIDPRP  shrunken log2 fold change          -0.554
2  RRIRNRPPRLPRPRPRPMGPPRP  shrunken log2 fold change          0.0762
3  RRIRWRPPRLPRPRPRPCHNPRP  shrunken log2 fold change           -1.64
4  RRIRDRPPRLPRPRPRPPNSPRP  shrunken log2 fold change         -0.0992
5  RRIRDRPPRLPRPRPRPWPVPRP  shrunken log2 fold change           0.531
6  RRIRTRPPRLPRPRPRPSTVPRP  shrunken log2 fold change          0.0213
7  RRIRVRPPRLPRPRPRPAFAPRP  shrunken log2 fold change           0.666
8  RRIRMRPPRLPRPRPRPWGTPRP  shrunken log2 fold change           0.254
9  RRIRVRPPRLPRPRPRPIDVPRP  shrunken log2 fold change         -0.0749

Query block: Fill in the blank: the reported shrunken log2 fold change of RRIRLRPPRLPRPRPRPIQNPRP is ____.
Result block: -0.403

====

Measured shrunken log2 fold change of individual entries
- Tested on: Escherichia coli TOP10
- PROCEDURE DETAILS: shrunken log2 fold change of peptide-encoding DNA abundance (4.5 h post-induction vs induction); higher = less antimicrobial activity (less host growth inhibition)
- EXPERIMENTAL CONDITIONS: time post-induction: 4.5 h; library: site-saturation at positions 5, 18, 19, 20
Give a plain numeric answer without units written out.

Solved entries:
In [3]: df
Out[3]:
          residue_sequence             test_target  value_measured
0  RRIRGRPPRLPRPRPRPIQEPRP  Escherichia coli TOP10           0.416
1  RRIRDRPPRLPRPRPRPKVLPRP  Escherichia coli TOP10          -0.041
2  RRIRYRPPRLPRPRPRPKFAPRP  Escherichia coli TOP10           -0.44
3  RRIRVRPPRLPRPRPRPRNPPRP  Escherichia coli TOP10           0.148
4  RRIRHRPPRLPRPRPRPHTGPRP  Escherichia coli TOP10          -0.226

Query block: What shrunken log2 fold change appears in the records for this sequence with Escherichia coli TOP10? RRIRHRPPRLPRPRPRPNCPPRP
Result block: -0.152

Query block: Observed shrunken log2 fold change on Escherichia coli TOP10 for RRIRIRPPRLPRPRPRPIATPRP , please.
Result block: -0.471

Query block: Fill in the recorded shrunken log2 fold change for this sequence, with Escherichia coli TOP10 as test system: RRIRFRPPRLPRPRPRPIYMPRP
Result block: -0.878

Query block: Look up shrunken log2 fold change with Escherichia coli TOP10 for this sequence: RRIRIRPPRLPRPRPRPTHDPRP
Result block: -0.0575

Query block: Could you share what shrunken log2 fold change was measured for RRIRCRPPRLPRPRPRPFEWPRP , tested on Escherichia coli TOP10?
Result block: -0.0143

Query block: Write down the reported shrunken log2 fold change of RRIRSRPPRLPRPRPRPWHRPRP , test system: Escherichia coli TOP10.
Result block: -0.024

Query block: Provide the documented shrunken log2 fold change with Escherichia coli TOP10 as the system for RRIRHRPPRLPRPRPRPYRPPRP
Result block: -0.115

Query block: # get_value(readout= shrunken log2 fold change, system= Escherichia coli TOP10) for RRIRTRPPRLPRPRPRPSIGPRP
Result block: -0.272

Query block: Which shrunken log2 fold change is reported with Escherichia coli TOP10 for this entry: RRIRSRPPRLPRPRPRPWDNPRP ?
Result block: 0.0157

Query block: Report shrunken log2 fold change for RRIRHRPPRLPRPRPRPCGNPRP tested on Escherichia coli TOP10.
Result block: -0.196

Query block: Record RRIRYRPPRLPRPRPRPKYHPRP : what is its shrunken log2 fold change with Escherichia coli TOP10?
Result block: -2.19

====

- Tested on: Escherichia coli TOP10
- PROCEDURE DETAILS: shrunken log2 fold change of peptide-encoding DNA abundance (4.5 h post-induction vs induction); higher = less antimicrobial activity (less host growth inhibition)
- EXPERIMENTAL CONDITIONS: time post-induction: 4.5 h; library: site-saturation at positions 5, 18, 19, 20
Consider the following sequences and their measured shrunken log2 fold change readings.
# answer = number (no unit)

Query block: Which shrunken log2 fold change reading was recorded for the sequence RRIRVRPPRLPRPRPRPTYTPRP ?
Result block: -0.172

Query block: Request the reported shrunken log2 fold change associated with RRIRMRPPRLPRPRPRPPQIPRP
Result block: 0.468

Query block: Consider the sequence RRIRSRPPRLPRPRPRPTWKPRP and give its measured shrunken log2 fold change.
Result block: 0.286

Query block: Which shrunken log2 fold change is reported for this sequence? RRIRKRPPRLPRPRPRPWDTPRP
Result block: -0.00122

====

- Tested on: Escherichia coli TOP10
- PROCEDURE DETAILS: shrunken log2 fold change of peptide-encoding DNA abundance (4.5 h post-induction vs induction); higher = less antimicrobial activity (less host growth inhibition)
- EXPERIMENTAL CONDITIONS: time post-induction: 4.5 h; library: site-saturation at positions 5, 18, 19, 20
Lab note: anything with shrunken log2 fold change at or over -0.01 counts as True; the rest go in False.

Look over these answered cases.
In [3]: df
Out[3]:
          residue_sequence  assigned_label
0  RRIRIRPPRLPRPRPRPDRGPRP           False
1  RRIRYRPPRLPRPRPRPFPAPRP           False
2  RRIRKRPPRLPRPRPRPSDLPRP            True
3  RRIRFRPPRLPRPRPRPEMFPRP            True

Let us examine a further case.
Query block: Say whether RRIRNRPPRLPRPRPRPQWGPRP shows shrunken log2 fold change of -0.01 or more.
Result block: False

====

- Tested on: Escherichia coli TOP10
- PROCEDURE DETAILS: shrunken log2 fold change of peptide-encoding DNA abundance (4.5 h post-induction vs induction); higher = less antimicrobial activity (less host growth inhibition)
- EXPERIMENTAL CONDITIONS: time post-induction: 4.5 h; library: site-saturation at positions 5, 18, 19, 20
MEASUREMENT KIND: shrunken log2 fold change
Reply with the value as a number alone.

Query block: # returns recorded shrunken log2 fold change (system: Escherichia coli TOP10) for RRIRKRPPRLPRPRPRPFPVPRP
Result block: -0.288

Query block: GET /values?readout=shrunken log2 fold change&system=Escherichia coli TOP10&item= RRIRFRPPRLPRPRPRPSGFPRP
Result block: -0.207

====

- System: Escherichia coli TOP10
- PROCEDURE DETAILS: shrunken log2 fold change of peptide-encoding DNA abundance (4.5 h post-induction vs induction); higher = less antimicrobial activity (less host growth inhibition)
- EXPERIMENTAL CONDITIONS: time post-induction: 4.5 h; library: site-saturation at positions 5, 18, 19, 20
MEASUREMENT KIND: shrunken log2 fold change
Answer as a number with no unit attached.

>>> df
          residue_sequence  value_measured
0  RRIRRRPPRLPRPRPRPHPRPRP            1.03
1  RRIRWRPPRLPRPRPRPDRKPRP         -0.0752
2  RRIRMRPPRLPRPRPRPIWYPRP          -0.158
3  RRIRMRPPRLPRPRPRPFLMPRP         -0.0208
4  RRIRNRPPRLPRPRPRPYIDPRP          0.0433
5  RRIRDRPPRLPRPRPRPCFKPRP         -0.0968

Query block: Fill in the blank: the reported shrunken log2 fold change of RRIRGRPPRLPRPRPRPMDQPRP is ____.
Result block: 0.489

====

- Test system: Escherichia coli TOP10;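 also: peptides expressed intracellularly from a pBAD plasmid library in pooled LB shake-flask culture, induced with 0.3% L-arabinose, DNA abundance read by NGS, three biological replicates, DESeq2 with apeglm shrinkage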
- PROCEDURE DETAILS: shrunken log2 fold change of peptide-encoding DNA abundance (4.5 h post-induction vs induction); higher = less antimicrobial activity (less host growth inhibition)
- EXPERIMENTAL CONDITIONS: time post-induction: 4.5 h; library: site-saturation at positions 5, 18, 19, 20
1.0 means recorded shrunken log2 fold change is -0.02 or above; 0.0 means it is below -0.02.

Sample answers from the record:
In [3]: df
Out[3]:
          residue_sequence  assigned_label
0  RRIRPRPPRLPRPRPRPAYQPRP             1.0
1  RRIRCRPPRLPRPRPRPIACPRP             0.0
2  RRIRDRPPRLPRPRPRPDTMPRP             1.0

Query block: Decide: shrunken log2 fold change of RRIRPRPPRLPRPRPRPDKGPRP >= -0.02?
Result block: 1.0

Query block: Does the reported shrunken log2 fold change for RRIRTRPPRLPRPRPRPGWVPRP fall at or above the -0.02 mark?
Result block: 0.0

Query block: Could you verify whether the entry RRIRPRPPRLPRPRPRPAPKPRP shows shrunken log2 fold change of no less than -0.02?
Result block: 1.0

Query block: Evaluate RRIRKRPPRLPRPRPRPCEMPRP : shrunken log2 fold change at minimum -0.02?
Result block: 1.0

Query block: Form field: shrunken log2 fold change at least -0.02? Entry: RRIRWRPPRLPRPRPRPFQRPRP
Result block: 1.0

Query block: hey, is shrunken log2 fold change for this one >= -0.02? RRIRNRPPRLPRPRPRPKDSPRP
Result block: 0.0

Query block: Textbook exercise: given the entry RRIRYRPPRLPRPRPRPKYFPRP , state whether its shrunken log2 fold change is greater than or equal to -0.02.
Result block: 0.0

Query block: I'd appreciate it if you could say whether RRIRQRPPRLPRPRPRPGAMPRP has shrunken log2 fold change at least equal to -0.02.
Result block: 1.0

Query block: Has RRIRVRPPRLPRPRPRPDIEPRP a recorded shrunken log2 fold change greater than or equal to -0.02?
Result block: 0.0

Query block: // inclusive: shrunken log2 fold change at least -0.02? input: RRIRYRPPRLPRPRPRPIFYPRP
Result block: 0.0

Query block: Could you tell me if the measured shrunken log2 fold change of RRIRKRPPRLPRPRPRPRYMPRP reaches -0.02 or more?
Result block: 0.0

Query block: Reported shrunken log2 fold change at or above -0.02? RRIRDRPPRLPRPRPRPKLLPRP
Result block: 1.0

Query block: # check: shrunken log2 fold change of RRIRSRPPRLPRPRPRPHKGPRP is greater than or equal to -0.02
Result block: 0.0

Query block: # bool: shrunken log2 fold change of RRIRFRPPRLPRPRPRPPKDPRP >= -0.02
Result block: 1.0

Query block: Check the entry RRIRNRPPRLPRPRPRPWQHPRP : does shrunken log2 fold change equal or exceed -0.02?
Result block: 1.0

Query block: Does RRIRKRPPRLPRPRPRPVPEPRP have a reported shrunken log2 fold change of at least -0.02?
Result block: 1.0

Query block: Answer whether shrunken log2 fold change of RRIRFRPPRLPRPRPRPYTEPRP is greater than or equal to -0.02.
Result block: 0.0

Query block: Reported shrunken log2 fold change reaches at least -0.02 for RRIRGRPPRLPRPRPRPPILPRP ?
Result block: 0.0

Query block: Please indicate if the recorded shrunken log2 fold change for RRIRYRPPRLPRPRPRPNFVPRP meets or exceeds -0.02.
Result block: 1.0

Query block: # check: shrunken log2 fold change of RRIRTRPPRLPRPRPRPRSIPRP is greater than or equal to -0.02
Result block: 0.0

Query block: Could you tell me if the measured shrunken log2 fold change of RRIRHRPPRLPRPRPRPNSGPRP reaches -0.02 or more?
Result block: 0.0

Query block: Please tell me: is the sequence RRIRKRPPRLPRPRPRPFVAPRP at or over -0.02 in terms of shrunken log2 fold change?
Result block: 1.0
